biological target: human ALK receptor (human); assay: apparent KD (KD^app), method not stated
Sequence (chain, as listed by the source): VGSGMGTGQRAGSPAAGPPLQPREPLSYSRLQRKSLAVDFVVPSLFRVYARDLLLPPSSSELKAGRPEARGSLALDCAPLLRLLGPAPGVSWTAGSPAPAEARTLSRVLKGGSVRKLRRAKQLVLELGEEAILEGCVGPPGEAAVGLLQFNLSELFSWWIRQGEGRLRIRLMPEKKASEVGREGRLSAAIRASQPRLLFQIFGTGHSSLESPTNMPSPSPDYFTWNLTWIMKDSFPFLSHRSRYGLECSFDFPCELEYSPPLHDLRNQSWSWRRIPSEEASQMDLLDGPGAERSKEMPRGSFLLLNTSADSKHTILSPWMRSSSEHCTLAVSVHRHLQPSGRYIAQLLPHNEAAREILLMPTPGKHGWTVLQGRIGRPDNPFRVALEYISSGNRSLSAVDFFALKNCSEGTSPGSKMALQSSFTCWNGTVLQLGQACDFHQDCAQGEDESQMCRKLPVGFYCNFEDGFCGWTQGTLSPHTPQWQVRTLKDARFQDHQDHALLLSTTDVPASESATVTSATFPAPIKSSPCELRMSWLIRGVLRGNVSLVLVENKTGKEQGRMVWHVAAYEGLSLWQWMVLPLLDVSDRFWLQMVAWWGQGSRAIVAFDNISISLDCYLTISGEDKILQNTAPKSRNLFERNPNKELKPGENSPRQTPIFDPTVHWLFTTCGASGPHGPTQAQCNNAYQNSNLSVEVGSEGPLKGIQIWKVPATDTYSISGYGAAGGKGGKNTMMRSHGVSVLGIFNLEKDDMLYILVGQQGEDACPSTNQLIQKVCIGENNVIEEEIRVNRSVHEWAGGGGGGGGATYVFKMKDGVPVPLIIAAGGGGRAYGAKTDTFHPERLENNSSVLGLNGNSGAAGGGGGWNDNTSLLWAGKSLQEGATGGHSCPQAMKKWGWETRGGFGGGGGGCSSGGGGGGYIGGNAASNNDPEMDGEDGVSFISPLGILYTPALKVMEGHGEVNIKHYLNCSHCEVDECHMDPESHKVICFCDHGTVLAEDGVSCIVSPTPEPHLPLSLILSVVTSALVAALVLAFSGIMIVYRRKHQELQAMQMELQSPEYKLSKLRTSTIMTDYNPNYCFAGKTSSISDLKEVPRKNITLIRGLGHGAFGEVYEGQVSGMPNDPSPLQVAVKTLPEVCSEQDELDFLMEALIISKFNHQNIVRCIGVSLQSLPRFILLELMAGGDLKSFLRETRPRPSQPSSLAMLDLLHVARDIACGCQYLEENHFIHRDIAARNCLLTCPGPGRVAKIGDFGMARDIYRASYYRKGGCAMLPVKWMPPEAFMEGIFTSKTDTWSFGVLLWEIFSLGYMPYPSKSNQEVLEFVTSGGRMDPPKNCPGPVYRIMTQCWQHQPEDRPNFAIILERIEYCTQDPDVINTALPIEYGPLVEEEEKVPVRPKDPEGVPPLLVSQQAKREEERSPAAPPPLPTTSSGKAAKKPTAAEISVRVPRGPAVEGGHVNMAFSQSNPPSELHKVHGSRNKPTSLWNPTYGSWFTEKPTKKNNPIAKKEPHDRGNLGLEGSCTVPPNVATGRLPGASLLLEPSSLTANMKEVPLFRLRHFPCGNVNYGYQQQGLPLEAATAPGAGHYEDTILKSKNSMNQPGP
Form field: pKd (one value per entry).
pKd is defined as minus the log10 of a concentration measured in mol/L.

ALK Antibody #7 (antibody, V domains shown) VH: QVQLQQSGAELAKPGASVKLSCKASGYTFTSYWMHWVKQRPGQGLEWIGYINPSSGYTKYNQKFKDKATLTADKSSSTAYMQLSSLTFEDSAVYYCARDYYGSSSWFAYWGQGTLVTVSA VL: DIVMTQSQKFMSTSVGDRVSVTCKASQNVGTNVAWYQQKPGHSPKALIYSASYRYSGVPDRFTGSGSGTDFTLTISNVQSEDLAEYFCQRYNSYPYMFTFGGGTKLEIKR	9.30
ALK Antibody #6 (antibody, V domains shown) VH: DVKLVESGEGLVKPGGSLKLSCAASGFTFSSYAMSWVRQTPEKRLEWVTYISSGGDYIYYADTVKGRFTISRDNARNTLYLQMSSLKSEDTAMYYCTRERIWLRRFFDVWGTGTTVTVSS VL: DIVMTQSQKFMSTSVGDRVSITCKASQNVGTAVAWYQLKPGQSPKLLIYSASNRFTGVPDRFTGSGSGTDFTLTISNMQSEDLADYFCQQYSSYPLTFGSGTKLEIKR	9.40
ALK Antibody #3 (antibody, V domains shown) VH: QVQLQQSGAELAKPGASVKLSCKASGYTFTNYWMHWVKQRPGQGLEWIGYINPSSGYTKYNQKFKDKATLTADKSSSTAYMQLSSLTYEDSAVYYCARDYYGSSSWFAYWGQGTLVTVSA VL: DIVMTQSQRFMSTSVGDRVSVTCKASQNVGTNVAWYQQKPGQSPKALIYSASYRYSGVPDRFTGSGSGTDFTLTVSNVQSEDLAEYFCQQYNSYPYMYTFGGGTKLEIKR	9.30
ALK Antibody #1 (antibody, V domains shown) VH: QVQLQQSGAELVKPGASVKISCKASGYAFSSYWMNWVKQRPGKGLEWIGQIYPGDGDTNYNGKFKGKATLTADKSSSTAYMQLSSLTSEDSAVYFCASYYYGSKAYWGQGTLVTVSA VL: DIQMTQSPASLAASVGETVTITCRASENIYYSLAWYQQKQGKSPQLLIYNANSLEDGVPSRFSGSGSGTQYSMKINSMQPEDTATYFCKQAYDVPFTFGSGTKLEIKR	9.46

Next item in the queue.
Look up pKd of ALK Antibody #5 (antibody, V domains shown) VH: QVQLQQSGAELAKPGASVKLSCKASGYTFTSYWMHWVKQRPGQGLEWIGYIKPSSGYTKYNQKFKDKATLTADKSSSTAYMQLSSLTYEDSAVYYCARDYYGSSSWFAYWGQGTLVTVSA VL: DIVMTQSQRFMSTSVGDRVSVTCKASQNVGTNVAWYQQKPGQSPKALIYSASYRYSGVPDRFTGSGSGTDFTLTISNVQSEDLAEYFCQQYNSYPYMYTFGGGTKLEIKR and report it.
9.30

Provenance of the data: patent US20230101046A1
